- measurement_target: Adenosine receptor A3 (Homo sapiens)
- experiment: Displacement of [3H]NECA from human recombinant adenosine A3 receptor expressed in CHO cells
What Ki was measured for each of the following?
Report only the number, with the unit nM understood.

If you can, please state the reported Ki value of CNC(=O)[C@H]1O[C@@H](n2cnc3c(NC)nc(C#Cc4ccccc4)nc32)[C@H](O)[C@@H]1O . 0.44

Entry under review: CONc1nc(C#Cc2ccccc2)nc2c1ncn2[C@@H]1O[C@H](CO)[C@@H](O)[C@H]1O . Reported Ki? 3.8

For the compound shown here, CNC(=O)[C@H]1O[C@@H](n2cnc3c(NC)nc(C#Cc4ccc(F)cc4)nc32)[C@H](O)[C@@H]1O , give the reported Ki. 0.43

# get_value(readout='Ki', item= CNC(=O)[C@H]1O[C@@H](n2cnc3c(NC)nc(C#Cc4ccccn4)nc32)[C@H](O)[C@@H]1O ) 0.4

* * *

- measurement_target: Adenosine receptors; A1 & A3 (Homo sapiens) (UniProt P30542+P0DMS8)
- experiment: Selectivity ratio of Ki for human recombinant adenosine A1 receptor to Ki for human recombinant adenosine A3 receptor
So I've got a bunch of molecules here, and I need their Ratio Ki values.
Simply state the number, no unit and no words.

# input molecule: CONc1nc(C#Cc2ccccc2)nc2c1ncn2[C@@H]1O[C@H](CO)[C@@H](O)[C@H]1O ; wanted: its Ratio Ki 300

# input molecule: CNC(=O)[C@H]1O[C@@H](n2cnc3c(NC)nc(C#Cc4ccccn4)nc32)[C@H](O)[C@@H]1O ; wanted: its Ratio Ki 22000

Look up Ratio Ki: CNC(=O)[C@H]1O[C@@H](n2cnc3c(NC)nc(C#Cc4ccc(F)cc4)nc32)[C@H](O)[C@@H]1O 12500

Ratio Ki for CNC(=O)[C@H]1O[C@@H](n2cnc3c(NOC)nc(C#Cc4ccccn4)nc32)[C@H](O)[C@@H]1O ? 3600

So what's the measured Ratio Ki for this one? CNC(=O)[C@H]1O[C@@H](n2cnc3c(NOC)nc(C#Cc4ccc(F)cc4)nc32)[C@H](O)[C@@H]1O 1600

Item CNC(=O)[C@H]1O[C@@H](n2cnc3c(NC)nc(C#Cc4ccccc4)nc32)[C@H](O)[C@@H]1O has what recorded Ratio Ki? 76500

Look up Ratio Ki for this molecule: CNC(=O)[C@H]1O[C@@H](n2cnc3c(NOC)nc(C#Cc4ccccc4)nc32)[C@H](O)[C@@H]1O 4800

For the molecule CNc1nc(C#Cc2ccccc2)nc2c1ncn2[C@@H]1O[C@H](CO)[C@@H](O)[C@H]1O , what Ratio Ki is on record? 500

* * *

- measurement_target: Adenosine receptor A3 (Homo sapiens)
- Sequence (P0DMS8 whole entry): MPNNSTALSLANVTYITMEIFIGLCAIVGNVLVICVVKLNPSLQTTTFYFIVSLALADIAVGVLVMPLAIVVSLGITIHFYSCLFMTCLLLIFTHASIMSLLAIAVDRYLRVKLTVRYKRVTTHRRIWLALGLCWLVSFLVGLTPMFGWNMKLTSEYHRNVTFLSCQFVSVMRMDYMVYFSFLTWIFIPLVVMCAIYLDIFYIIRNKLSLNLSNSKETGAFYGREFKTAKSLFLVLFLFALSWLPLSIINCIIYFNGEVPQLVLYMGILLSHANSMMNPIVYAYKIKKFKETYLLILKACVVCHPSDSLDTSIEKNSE
- experiment: Agonist activity at human recombinant adenosine A3 receptor expressed in CHO cells assessed as nonradiaoactive DELFIA Eu-GTP binding treated for 15 mins before addition of Eu-GTP measured after 45 mins by time-resolved fluorometric method
Assignment: determine reported EC50 for the given compounds.
Output spec: scalar in nM, unitless text.

Which measured EC50 value corresponds to CNC(=O)[C@H]1O[C@@H](n2cnc3c(NC)nc(C#Cc4ccc(F)cc4)nc32)[C@H](O)[C@@H]1O ? 190

Item CNC(=O)[C@H]1O[C@@H](n2cnc3c(NC)nc(C#Cc4ccccn4)nc32)[C@H](O)[C@@H]1O has what recorded EC50? 46

EC50 for CNC(=O)[C@H]1O[C@@H](n2cnc3c(NOC)nc(C#Cc4ccccc4)nc32)[C@H](O)[C@@H]1O ? 120

Bench note: what EC50 did CNC(=O)[C@H]1O[C@@H](n2cnc3c(NCc4ccc(I)cc4)nc(Cl)nc32)[C@H](O)[C@@H]1O show? 363

Would you kindly share the measured EC50 for CNC(=O)[C@H]1O[C@@H](n2cnc3c(NOC)nc(C#Cc4ccc(F)cc4)nc32)[C@H](O)[C@@H]1O ? 210

# EC50 lookup, item CNC(=O)[C@H]1O[C@@H](n2cnc3c(NC)nc(C#Cc4ccccc4)nc32)[C@H](O)[C@@H]1O 151

So what does the record say about EC50 for CONc1nc(C#Cc2ccccc2)nc2c1ncn2[C@@H]1O[C@H](CO)[C@@H](O)[C@H]1O ? 320

Look at this compound and give its reported EC50. CNC(=O)[C@H]1O[C@@H](n2cnc3c(NOC)nc(C#Cc4ccccn4)nc32)[C@H](O)[C@@H]1O 52

Item CNc1nc(C#Cc2ccccc2)nc2c1ncn2[C@@H]1O[C@H](CO)[C@@H](O)[C@H]1O has what recorded EC50? 290
